Data provenance: PubChem BioAssay AID624167

- assayedTarget: PEG-3 (UniProt Q6IN02)
- Sequence (Q6IN02 whole entry, looked up): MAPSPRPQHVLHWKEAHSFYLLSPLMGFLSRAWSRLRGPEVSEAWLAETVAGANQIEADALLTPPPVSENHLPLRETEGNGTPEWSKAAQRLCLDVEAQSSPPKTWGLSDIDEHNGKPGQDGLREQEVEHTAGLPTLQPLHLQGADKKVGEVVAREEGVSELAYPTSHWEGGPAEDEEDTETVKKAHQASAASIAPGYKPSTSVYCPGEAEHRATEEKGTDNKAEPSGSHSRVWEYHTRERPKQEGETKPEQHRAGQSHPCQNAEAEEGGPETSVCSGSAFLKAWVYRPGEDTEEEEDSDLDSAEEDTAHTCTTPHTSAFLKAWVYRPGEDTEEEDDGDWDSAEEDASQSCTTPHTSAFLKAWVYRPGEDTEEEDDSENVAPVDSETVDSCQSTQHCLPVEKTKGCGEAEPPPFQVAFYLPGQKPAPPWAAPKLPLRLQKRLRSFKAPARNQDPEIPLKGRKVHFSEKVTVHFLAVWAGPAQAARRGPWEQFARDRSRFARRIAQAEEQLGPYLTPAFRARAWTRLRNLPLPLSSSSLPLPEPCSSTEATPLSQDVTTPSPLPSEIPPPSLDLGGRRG
- experimentalDetails: Peg3 promoter luciferase inhibitors, potency, dose response, cell-based, HeLa, CREF/GAPDH counter-screen panel (AID 624167)
- runConditions: HeLa PEG-Prom luciferase reporter, overnight, CREF/GAPDH counter-screens, mean of runs
# Lookup of reported IC50 keyed by entry

Examples with their reported IC50 follow.
CC[C@@H](O)C[C@H]1CCC[C@@]2(C[C@@H]3OC(=O)/C=C/[C@@](C)(O)[C@@H](O)[C@H](C)[C@@H](O)[C@H](OC4CCC(N(C)C)C(C)O4)[C@@H](O)[C@](C)(O)CCCCC/C=C/[C@@H]4CC(C)(C)O[C@@]4(O)C[C@H](O2)[C@H]3C)O1 (stereo partly drawn) :: 15.8 µM
COc1cc(-c2cc(C(=O)Nc3cc(S(=O)(=O)N4CCOCC4)ccc3C)c3ccccc3n2)cc(OC)c1OC :: 11.8 µM
Cc1ccc(C)c(S(=O)(=O)N2CCN(c3ncnc4sccc34)CC2)c1 :: 2.53 µM
C=C1CC2(OC1=O)c1ccccc1CCc1ccccc12 :: 4.84 µM
CCc1ccc(/C=C2\SC(=S)N(CCCC(=O)NC3=NCCS3)C2=O)cc1 :: 1.21 µM
CNCC(O)c1cc(OCc2ccccc2)c(OCc2ccccc2)cc1F (stereo not drawn) :: 18.5 µM

Kindly consider the entry below.
For Nc1c(C(=O)Nc2cccc(C(=O)O)c2)sc2nc3c(cc12)CCCC3 , what is its reported IC50?
11.2 µM

* * *

- System: PEG-3
- experimentalDetails: Peg3 promoter luciferase inhibitors, potency, dose response, cell-based, HeLa, CREF/GAPDH counter-screen panel (AID 624167)
- runConditions: HeLa PEG-Prom luciferase reporter, overnight, CREF/GAPDH counter-screens, run 1, dose range 1, individual replicate IC50 per panel
Below, each entry is listed alongside its reported IC50.
Give me the value, and tack the unit on after it.

Example results:
CN(C)CCCN(C(=O)c1ccc(S(=O)(=O)N(C)Cc2ccccc2)cc1)c1nc2cc3c(cc2s1)OCO3 :: 19.3 µM
CSc1ccc2c(c1)C(N1CCN(C)CC1)Cc1ccccc1S2 (centres undefined) :: 16.9 µM
Cc1cccc(N2CCN(C(=O)C3CCN(c4ncnc5c4nc4n5CCCCC4)CC3)CC2)c1C :: 30.2 µM
Cn1nnnc1Sc1ncnc2scc(-c3ccsc3)c12 :: 14.7 µM
O=C(O)c1ccc(CN2C(=O)c3cccc4c([N+](=O)[O-])ccc(c34)C2=O)cc1 :: 12.1 µM

Test system PEG-3; read-out IC50; what value for COc1ccc(NC(=O)N(C)[C@H]2C[C@H]3c4[nH]c5ccc(-c6cccc(C)c6)cc5c4CCN3C[C@H]2[C@H](C)O)cc1 ?
23.6 µM

Lab request: please report IC50 under test system PEG-3 for CCN(CC)c1ccc2nc3ccc(N)cc3[n+](-c3ccccc3)c2c1
9.95 µM

Find the measured IC50: item C=C1CC2(OC1=O)c1ccccc1CCc1ccccc12 , target or system PEG-3.
5.7 µM

Lab note: need IC50 for COc1ccc(C(c2nnnn2-c2c(C)cccc2C)N2CCC(n3c(=O)[nH]c4ccccc43)CC2)cc1 (centres undefined) on PEG-3, anyone have it?
11.4 µM

* * *

- Test system: Rat fibroblasts (CREF)
- experimentalDetails: Peg3 promoter luciferase inhibitors, potency, dose response, cell-based, HeLa, CREF/GAPDH counter-screen panel (AID 624167)
- runConditions: CREF/GAPDH counter-screens, run 2, dose range 1, individual replicate IC50 per panel
pIC50 listing for selected compounds.
For clarity, pIC50 is expressed as the negative log10 of concentration in mol/L.

O=C(Nc1ccc(Cc2ccncc2)cc1)c1ccc([N+](=O)[O-])o1 :: 4.84
CCOC(=O)c1c(-n2c(C)cc(C=C3C(=O)NC(=S)NC3=O)c2C)sc2c1CCCC2 :: 5.63
CN(C)c1ccc(/C=C(\C#N)c2ccccn2)cc1 :: 6.13
Cc1c([N+](=O)[O-])cc(N2C(=O)C=CC2=O)cc1[N+](=O)[O-] :: 4.75
O=[N+]([O-])c1ccc(-c2ccc(/C=N/Nc3nc(NCc4ccccc4)nc(N4CCOCC4)n3)o2)cc1 :: 5.11

What does the data say about its pIC50? Entry: Cc1cccc(OCC(=O)NCC(=O)N/N=C/c2cc(Br)cc(Br)c2O)c1
4.28

Param item = Cc1ccc2nc(C)cc(Nc3ccc([N+](=O)[O-])cc3)c2c1 ; retrieve measured pIC50.
5.07

I'd like to know its pIC50. The compound in question is Cc1ccc(-c2nc(-c3ccccn3)no2)cc1
6.17

Endpoint output: pIC50 of CN(C)c1ccc(/C=C/c2nc3ccccc3s2)cc1 . Value?
5.71

Returns the measured pIC50 for the input compound. Input: Nc1nonc1-n1nnc(C(=O)N/N=C/c2cc(Br)ccc2O)c1CNc1ccccc1
4.25
